melting point by entry:

>>> print(df.to_string())
                                   compound  reportedresult
0  Nc1c(C(=O)NC2CCCC2)ncn1C1OC(CO)C(O)C1O (stereo not shown)   158 to 160 °C
1  NC(=O)c1nc(S)n([C@@H]2O[C@H](CO)[C@@H](O)[C@H]2O)c1N   205 to 208 °C

melting point in this record for Nc1c(C(=O)Nc2ccc(Br)cc2)ncn1C1OC(CO)C(O)C1O (stereo not shown) : 214 to 216 °C (dec.)

In plain terms, Nc1c(C(=O)Nc2ccc(I)cc2)ncn1C1OC(CO)C(O)C1O (stereo not shown) has a documented melting point of 227 to 229 °C

Value of melting point reported for the compound Nc1c(C(=O)Nc2ccccc2Cl)ncn1C1OC(CO)C(O)C1O (stereo not shown) is 131 to 135 °C

Please fill in: melting point reported for CC(=O)OC[C@H]1O[C@@H](c2nc(C(N)=O)c(N)[nH]2)[C@H](OC(C)=O)[C@@H]1OC(C)=O = 128 to 129 °C

Consider Nc1c(C(=O)NCc2ccc([N+](=O)[O-])cc2)ncn1C1OC(CCl)C(O)C1O (stereo not shown) . Its measured melting point is 174 to 176 °C
